Experiment: Inhibition of MurC (unknown origin)
readout-name: pIC50
A value of pIC50 is the negative decimal logarithm of a concentration given in moles per litre.

Here are 3 compounds together with their reported answers.
| cpd-smiles | observed-result |
| --- | --- |
| Cc1cc(-c2ccco2)cc(C)c1/C=C/c1cncc(C2=NCCS2)c1 | 4.09 |
| Cc1cc(-c2ccco2)cc(C)c1/C=C/c1cncc(C2=NCCO2)c1 | 3.82 |
| Cc1cc(-c2ccco2)cc(C)c1/C=C/c1cncc(C(=O)O)c1 | 3.82 |

Fill in pIC50 for record `Cc1cc(-c2ccco2)cc(C)c1/C=C/c1cncc(C2=NCCN2)c1` 3.82

====

Assay: Inhibition of MurF (Unknown origin) at 100 uM relative to control
Values of inhibition greater than or equal to 20% map to 1.0; values below map to 0.0.

| cpd-smiles | category-label |
| --- | --- |
| Cc1cc(-c2ccco2)cc(C)c1/C=C/c1cncc(C(=O)O)c1 | 1.0 |
| Cc1cc(N2CCCCC2=O)cc(C)c1/C=C/c1cncc(-c2nnn[nH]2)c1 | 1.0 |
| Cc1cc(N2CCCC2)cc(C)c1/C=C/c1cncc(-c2nnn[nH]2)c1 | 1.0 |

Can `COc1ccccc1-c1cc(C)c(/C=C/c2cncc(-c3nnn[nH]3)c2)c(C)c1` be said to have inhibition at or above 20%? 0.0

Can `Cc1cc(-c2ccco2)cc(C)c1/C=C/c1cncc(C2=NCCN2)c1` be said to have inhibition at or above 20%? 1.0

Can `COc1ccc(-c2cc(C)c(/C=C/c3cncc(-c4nnn[nH]4)c3)c(C)c2)cc1` be said to have inhibition at or above 20%? 1.0

Can `Cc1cc(-c2ccco2)cc(C)c1/C=C/c1cc(-c2nnn[nH]2)ccn1` be said to have inhibition at or above 20%? 1.0

Can `Cc1cc(-c2cccc(C(=O)O)c2)cc(C)c1/C=C/c1cncc(-c2nnn[nH]2)c1` be said to have inhibition at or above 20%? 0.0

Can `Cc1cc(-c2cccnc2)cc(C)c1/C=C/c1cncc(-c2nn[nH]n2)c1` be said to have inhibition at or above 20%? 0.0

====

Test: Inhibition of MurC (unknown origin) at 100 uM relative to control
readout-name: inhibition
Write the quantity with the unit trailing the number.

| cpd-smiles | observed-result |
| --- | --- |
| Cc1cc(-c2ccco2)cc(C)c1/C=C/c1cncc(C#N)c1 | 22% |
| COc1cccc(-c2cc(C)c(/C=C/c3cncc(-c4nnn[nH]4)c3)c(C)c2)c1 | 15% |
| Cc1cc(-c2ccco2)cc(C)c1/C=C/c1cc(-c2nnn[nH]2)ccn1 | 23% |
| Cc1cc(-c2ccco2)cc(C)c1/C=C/c1cncc(C2=NCCO2)c1 | 44% |
| Cc1cc(N2CCCC2)cc(C)c1/C=C/c1cncc(-c2nnn[nH]2)c1 | 22% |

Fill in inhibition for record `Cc1cc(-c2ccoc2)cc(C)c1/C=C/c1cncc(-c2nnn[nH]2)c1` 16%

Fill in inhibition for record `Cc1cc(-c2cccc(C(=O)O)c2)cc(C)c1/C=C/c1cncc(-c2nnn[nH]2)c1` 33%

Fill in inhibition for record `COc1ccc(-c2cc(C)c(/C=C/c3cncc(-c4nnn[nH]4)c3)c(C)c2)cc1` 30%

Fill in inhibition for record `Cc1cc(N2CCCCC2=O)cc(C)c1/C=C/c1cncc(-c2nnn[nH]2)c1` 15%

Fill in inhibition for record `Cc1cc(-c2ccco2)cc(C)c1/C=C/c1cncc(C2=NCCN2)c1` 42%
